System: PRRSV CH-1a strain
Assay name: Antiviral activity by IFA, PRRSV CH-1a in MARC-145 cells
Type: cell-based
Setup conditions: Porcine reproductive and respiratory syndrome virus, MARC145
EC50 reference
Write the value in µM as a bare number.

[[record]]
structure_notation = "NC(=O)c1ncn([C@@H]2O[C@H](CO)[C@@H](O)[C@H]2O)n1"
measured_quantity = "EC50"
test_value = 31.5


# evaluate next
Ask | What value of EC50 has been reported for the following compound? `C[C@H]1[C@H](C)CC[C@]2(C(=O)O)CC[C@]3(C)C(=CC[C@@H]4[C@@]5(C)CC[C@H](O)C(C)(C)[C@@H]5CC[C@]43C)[C@H]12`
Reply | 11.3
